System: A. fumigatus ATCC 16424
procedureDetails: In vitro antifungal activity, microbroth dilution (MIC80)
Type: cell-based
details: lowest concentration reducing growth by 80% relative to untreated control; RPMI-1640, 35° C.
metric: MIC Range (MIC80) A. fumigatus ATCC 16424

compound="C[C@@H]1[C@H](O)[C@@H](C)/C=C/C=C/C=C/C=C/C=C/C=C/C=C/[C@H](O[C@@H]2O[C@H](C)[C@@H](O)[C@H](N)[C@@H]2O)C[C@@H]2O[C@](O)(C[C@@H](O)C[C@@H](O)[C@H](O)CC[C@@H](O)C[C@@H](O)CC(=O)O[C@H]1C)C[C@H](O)[C@H]2C(=O)O [Amphotericine B, reference compound]" result="0.5~1 μg/ml"
compound="CC(OC(F)=Cc1ccc(Oc2ccccc2)cc1)C(O)(Cn1cncn1)c1ccc(F)cc1F (stereo not shown) [Example 15]" result=">256 µg/mL"
compound="COc1cccc(C(=C(F)OC(C)C(O)(Cn2cncn2)c2ccc(F)cc2F)C(F)(F)F)c1 (stereo not shown) [Example 13]" result=">64 µg/mL"
compound="CC(OC(F)=C(c1ccccc1)C(F)(F)F)C(O)(Cn1cncn1)c1ccc(F)cc1F (stereo not shown) [Example 5]" result=">16 µg/mL"

###

targetUnderTest: CYP 2C19 (Homo sapiens, UniProt P33261)
Sequence (P33261 whole entry): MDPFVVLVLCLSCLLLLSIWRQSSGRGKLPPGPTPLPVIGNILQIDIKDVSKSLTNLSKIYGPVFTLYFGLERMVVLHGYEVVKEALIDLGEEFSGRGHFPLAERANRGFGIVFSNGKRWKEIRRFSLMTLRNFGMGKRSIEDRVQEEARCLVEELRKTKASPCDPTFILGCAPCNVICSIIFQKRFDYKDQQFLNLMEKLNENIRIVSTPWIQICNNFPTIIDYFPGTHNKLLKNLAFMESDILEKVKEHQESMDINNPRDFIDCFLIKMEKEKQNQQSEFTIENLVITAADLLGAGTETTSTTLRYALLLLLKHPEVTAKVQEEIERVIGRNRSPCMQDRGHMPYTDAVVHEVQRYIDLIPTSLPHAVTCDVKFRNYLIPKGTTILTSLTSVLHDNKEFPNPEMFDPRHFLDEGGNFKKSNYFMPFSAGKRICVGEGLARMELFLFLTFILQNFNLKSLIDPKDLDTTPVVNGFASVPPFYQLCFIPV
procedureDetails: Hepatic toxicity: Mephenytoin 4-hydroxylase in human hepatic microsomes
details: read-out: IC50 Mephenytoin 4-hydroxylase CYP 2C19; human hepatic microsomes 0.5 mg/ml, 37° C., 20 min, LC-MS
metric: IC50

compound="COc1ccc(C(=C(F)Oc2ccc(-c3ncn(C(C)C(O)(Cn4cncn4)c4ccc(F)cc4F)n3)cc2)C(F)(F)F)cc1 (stereo not shown) [Example 32]" result="> 100 µM"

###

targetUnderTest: CYP 1A2 (Homo sapiens)
Sequence (P05177 whole entry): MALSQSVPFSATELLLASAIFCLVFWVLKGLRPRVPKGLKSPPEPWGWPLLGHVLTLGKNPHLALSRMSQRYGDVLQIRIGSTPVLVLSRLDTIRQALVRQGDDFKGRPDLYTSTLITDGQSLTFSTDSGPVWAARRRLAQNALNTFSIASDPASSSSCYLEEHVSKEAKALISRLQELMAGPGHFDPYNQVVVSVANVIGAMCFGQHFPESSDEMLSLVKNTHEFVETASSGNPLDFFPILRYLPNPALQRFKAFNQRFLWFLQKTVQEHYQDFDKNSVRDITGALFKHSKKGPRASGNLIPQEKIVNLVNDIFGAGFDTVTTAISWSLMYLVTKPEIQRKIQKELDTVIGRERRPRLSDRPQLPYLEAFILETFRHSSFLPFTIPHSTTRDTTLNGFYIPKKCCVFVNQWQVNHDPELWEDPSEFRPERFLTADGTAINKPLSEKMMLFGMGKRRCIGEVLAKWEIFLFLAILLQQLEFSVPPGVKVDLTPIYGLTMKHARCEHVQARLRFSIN
procedureDetails: Hepatic toxicity: Phenacetin O-deethylase in human hepatic microsomes
details: read-out: IC50 Phenacetin O-deethylase CYP 1A2; human hepatic microsomes 0.5 mg/ml, 37° C., 20 min, LC-MS
metric: IC50

compound="COc1ccc(C(=C(F)Oc2ccc(-c3ncn(C(C)C(O)(Cn4cncn4)c4ccc(F)cc4F)n3)cc2)C(F)(F)F)cc1 (stereo not shown) [Example 32]" result="> 100 µM"

###

targetUnderTest: CYP 2A6 (Homo sapiens, UniProt P11509)
Sequence (P11509 1-494): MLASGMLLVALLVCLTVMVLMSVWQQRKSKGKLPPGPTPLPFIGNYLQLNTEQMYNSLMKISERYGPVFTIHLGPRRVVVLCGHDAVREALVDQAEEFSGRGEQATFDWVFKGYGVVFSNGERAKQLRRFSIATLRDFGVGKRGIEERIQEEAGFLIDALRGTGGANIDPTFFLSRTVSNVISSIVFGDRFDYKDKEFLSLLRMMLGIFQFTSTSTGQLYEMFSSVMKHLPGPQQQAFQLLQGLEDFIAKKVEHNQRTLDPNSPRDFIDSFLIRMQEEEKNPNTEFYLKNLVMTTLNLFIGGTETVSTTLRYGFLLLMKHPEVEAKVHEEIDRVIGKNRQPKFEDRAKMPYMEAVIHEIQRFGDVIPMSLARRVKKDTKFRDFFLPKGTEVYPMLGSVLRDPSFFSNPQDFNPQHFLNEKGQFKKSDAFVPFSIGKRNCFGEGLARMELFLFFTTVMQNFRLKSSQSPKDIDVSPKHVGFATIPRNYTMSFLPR
procedureDetails: Hepatic toxicity: Coumarin 7-hydroxylase in human hepatic microsomes
details: read-out: IC50 Coumarin 7-hydroxylase CYP 2A6; human hepatic microsomes 0.5 mg/ml, 37° C., 20 min, LC-MS
pIC50: −log10 of the molar value.
metric: pIC50

compound="COc1ccc(C(=C(F)Oc2ccc(-c3ncn(C(C)C(O)(Cn4cncn4)c4ccc(F)cc4F)n3)cc2)C(F)(F)F)cc1 (stereo not shown)" targetundertest="CYP 2A6 (Homo sapiens, UniProt P11509)" result="< 4.00"
